Target: DNA dC->dU-editing enzyme APOBEC-3G (Homo sapiens)
Experiment: qHTS for inhibitors of Vif-A3G interactions: Validation (AID 588379)
Conditions: Vif-A3G protein interaction assay; series mostly up to 46.1 µM
Activity calls are given as the source filed them. Calls follow the shape of the dose curve; as a rule, active = well fitted inhibition curve with a large enough effect; inconclusive = small, poorly fitted or top-dose-only effect; inactive = flat fitted curve, though single readings scatter.
OBSERVED PROPERTY: outcome

Recorded outcome, per entry:
STRUCTURE SMILES STRING: CC(C)(C)Cn1nc(-c2ccc(Cl)cc2)c2c(N)ncnc21
outcome: inactive
//
STRUCTURE SMILES STRING: COc1ccc2cccc(N3CCN(CCNC(=O)c4ccc(F)cc4)CC3)c2c1
outcome: inactive
//
STRUCTURE SMILES STRING: N[C@H](C(=O)O)c1cccc(O)c1
outcome: inactive
//
STRUCTURE SMILES STRING: COc1cc(COc2cc(N)c(Cl)cc2C(=O)CCC2CCN(CCNS(C)(=O)=O)CC2)cc(OC)c1
outcome: inactive
//
STRUCTURE SMILES STRING: CSc1nc(NC2CCCC2)c([N+](=O)[O-])c(NC2CCCC2)n1
outcome: inactive

Now for another entry.
Query :: Could you share which outcome value was measured for "Cc1cccc(C)c1NC(=O)C[N+](C)(C)C" ?
Result :: inactive
